src = patent US12221417B2

experiment: Water solubility (24 hour slurry experiment); conditions: pH 3.8, water, thermodynamic from solid
Where a name gives a salt, the structure may show the parent alone.
observable: solubility

## Input Give the measured solubility for COC(=O)N1CCN(Cc2cccc(NC(=O)Nc3ccc(C)nc3)c2F)CC1 [dihydrochloride salt, dihydrochloride hydrate]
## Output > 40 mg/mL
